test system: HOP-62; assay: NCI tumour cell line growth inhibition, 48 h
The source made the active and inactive calls. No stated cut-off is given here; in the data, active = GI50 up to about 1.1 µM and inactive = higher.
In this section, each of the compounds is paired with its reported GI50.

Examples with answers:
- Fc1cccc(Cl)c1C1SCc2nc3cc4ccccc4cc3n21 (configuration not stated): 35 µM (inactive)
- Cc1ccc(Nc2nc3[nH]ccc3c(=O)[nH]2)cc1: > 100 µM (inactive)
- C=CCC1(CN(C)C)CC/C(=C\c2ccc3c(c2)OCO3)C1=O (configuration not stated): > 100 µM (inactive)
- CN(CCCN(C)Cc1ccc(Cl)c(Cl)c1)CCN1CCCC1: 26.5 µM (inactive)
- CCc1c(OC(C)=O)c2c(NC3OCC(OC(C)=O)C(OC(C)=O)C3OC(C)=O)nc(SC)nc2oc1=O (configuration not stated): > 100 µM (inactive)

INPUT: Name the reported GI50 value associated with the compound O=C(N/N=C/c1cccc(F)c1)c1ccncc1
OUTPUT: > 100 µM (inactive)

INPUT: Moving on to the next compound: CS(=O)(=O)Nc1ccc(NCc2c[nH]c3ccc4ncccc4c23)cc1
OUTPUT: 36.5 µM (inactive)

INPUT: Moving on to the next compound: COc1ccc(OC)c2cc(C3(C)SCCCS3)ccc12
OUTPUT: > 100 µM (inactive)

INPUT: Moving on to the next compound: CC1(C)CO[P@@](=S)(c2ccccn2)O[C@@H]1c1ccccc1
OUTPUT: > 100 µM (inactive)

INPUT: Moving on to the next compound: O=C1/C(=C/c2ccccc2)CCCC/C1=C\c1ccccc1
OUTPUT: > 100 µM (inactive)

INPUT: Moving on to the next compound: CN/C(=N\CCSCc1nc[nH]c1C)NC#N
OUTPUT: > 100 µM (inactive)

INPUT: Moving on to the next compound: C[C@H]1CCC2C(OC(=O)[C@@H]2CN(C)C)[C@]2(C)C(=O)C=CC12O (some centres not stated)
OUTPUT: 23.9 µM (inactive)

INPUT: Moving on to the next compound: CN(C)C(=S)/N=c1\ss/c(=N\C(=S)N(C)C)n1-c1ccc2c(c1)OCO2
OUTPUT: > 100 µM (inactive)

INPUT: Moving on to the next compound: COc1ccc(CCNC(=O)c2ccccc2C2c3ccc(OCc4ccccc4)cc3Oc3cc(OCc4ccccc4)ccc32)cc1OC
OUTPUT: > 100 µM (inactive)

INPUT: Moving on to the next compound: COc1ccc2c(c1)CC1(O)COc3cc(OC)ccc3C1O2 (configuration not stated)
OUTPUT: > 100 µM (inactive)

---

system: COLO 205; assay: NCI tumour cell line growth inhibition, 48 h
Where a name gives a salt, the structure may show the parent alone. The source made the active and inactive calls. No stated cut-off is given here; in the data, active = GI50 up to about 1.1 µM and inactive = higher.
Give one outcome, nothing more. List: t = active, f = inactive

Past entries and their recorded results:
• COc1ccc2nccc(/C=C/c3ccc(N(C)C)cc3)c2c1 = f
• COC1C=COC2(C)Oc3c(C)c(O)c4c(O)c(c(/C=N/N5CCN(N)CC5)c(O)c4c3C2=O)NC(=O)C(C)=CC=CC(C)C(O)C(C)C(O)C(C)C(OC(C)=O)C1C (stereo not drawn) = f
• CC1=C(C)C1[N+](=O)[O-] = f
• CCN(CC)CCCNC(=O)c1ccc([N+](=O)[O-])cc1O = f
• CSC1=C(C#N)C(=O)N(c2ccc(C)cc2)C(=S)C1C#N (stereo not drawn) = f
• O=c1c(C(c2ccc(-c3ccccc3)cc2)c2c(O)oc3ccccc3c2=O)c(O)oc2ccccc12 = f

INPUT: Status in this test for Cc1cccc2c1C(=O)[C@@](C)([C@]1(C)Nc3cccc(C)c3C1=O)N2 ?
OUTPUT: f

INPUT: Moving on to the next molecule: OCCCCCNc1nc(O)c2[nH]cnc2n1
OUTPUT: f

INPUT: Moving on to the next molecule: OC[C@H]1NC[C@@H](O)[C@@H](O)[C@H]1O
OUTPUT: f

INPUT: Moving on to the next molecule: O=C1CN(c2ccccc2)C(=O)CN1CCN1CC(=O)N(c2ccccc2)CC1=O
OUTPUT: f

INPUT: Moving on to the next molecule: CCOc1ccc(-n2c(=O)n3c(Nc4ccc(Cl)cc4)nc4c(c(=O)n(C)c(=O)n4C)n3c2=O)cc1
OUTPUT: f

INPUT: Moving on to the next molecule: CNC(C)Cc1ccccc1OC (stereo not drawn) [METHOXYPHENAMINE HYDROCHLORIDE]
OUTPUT: f

---

test system: M14; assay: NCI tumour cell line growth inhibition, 48 h
Activity calls are given as the source filed them. No stated cut-off is given here; in the data, active = GI50 up to about 1.1 µM and inactive = higher.
experimentalEndpoint: GI50

Examples with answers:
• CNC(=O)c1nc[nH]c1/N=N/N(C)N = > 100 µM (inactive)
• Cc1c2cc[n+](C)cc2c(C)c2c1oc1ccccc12 = 14.6 µM (inactive)
• COc1cc2c(cc1OC)C(CCN)=NCC2 = 17.2 µM (inactive)
• NC(CCOCCP(=O)(O)O)C(=O)O (stereo not given) = > 100 µM (inactive)

INPUT: Name the reported GI50 value associated with the molecule Cc1ccc(Nc2nc3[nH]ccc3c(=O)[nH]2)cc1
OUTPUT: > 100 µM (inactive)

INPUT: Moving on to the next molecule: OCCCCCNc1nc(O)c2[nH]cnc2n1
OUTPUT: > 100 µM (inactive)

INPUT: Moving on to the next molecule: C=C(C#N)C1OCC2OC(C)(C)OC21 (stereo not given)
OUTPUT: 15.7 µM (inactive)

INPUT: Moving on to the next molecule: COC(NC(N)=O)C(=O)O (stereo not given)
OUTPUT: > 100 µM (inactive)

INPUT: Moving on to the next molecule: Cc1ccc2c(n1)C(=O)C=CC2=O
OUTPUT: 15 µM (inactive)

INPUT: Moving on to the next molecule: O=[N+]([O-])c1ccc2nc(O)c(/C=C(\O)c3ccccc3)nc2c1
OUTPUT: > 100 µM (inactive)

INPUT: Moving on to the next molecule: N/N=C(\N)SCCCCCCCCCCS/C(N)=N/N
OUTPUT: 29.4 µM (inactive)

INPUT: Moving on to the next molecule: O=C1C[C@@H](c2ccccc2)O[C@@H](c2ccccc2)C1
OUTPUT: > 100 µM (inactive)

INPUT: Moving on to the next molecule: CC1=Nc2c(ccc3c2C(=O)c2ccccc2C3=O)NC(c2ccncc2)C1 (stereo not given)
OUTPUT: > 10 µM (inactive)

INPUT: Moving on to the next molecule: CCCCCCCCCCCCCC1CCC(CC)N1 (stereo not given)
OUTPUT: 17.9 µM (inactive)

INPUT: Moving on to the next molecule: CCOC(=O)C(=CNC(Cc1c[nH]c2ccccc12)C(=O)OC)C(=O)OCC (stereo not given)
OUTPUT: > 100 µM (inactive)

---

tested on: EKVX; experiment: NCI tumour cell line growth inhibition, 48 h
Calls of active or inactive are those of the source. No stated cut-off is given here; in the data, active = GI50 up to about 1.1 µM and inactive = higher.
Give one outcome, nothing more. List: class 1 for active, class 0 for inactive

INPUT: Status in this test for [O-][n+]1nc(N2CCOCC2)nc2ccccc21 ?
OUTPUT: class 0

INPUT: Moving on to the next molecule: O=C1NC(=O)C2(CCc3ccc(N(CCCl)CCCl)cc32)N1 (stereo unspecified)
OUTPUT: class 0

INPUT: Moving on to the next molecule: O=C(CN1CCN(c2ccccn2)CC1)N1CCCn2c1nc1ccccc1c2=O
OUTPUT: class 0

---

test system: SNB-75; assay: NCI tumour cell line growth inhibition, 48 h
The source made the active and inactive calls. No stated cut-off is given here; in the data, active = GI50 up to about 1.1 µM and inactive = higher.
In this section, each of the molecules is paired with its reported GI50.

Examples with answers:
• NCC1(N2CCOCC2)C2CCCC21CNc1ccccc1 (stereo not given) = 57.9 µM (inactive)
• COc1ccc(/C=C2\CCC(CCN(C)C)(C3=CCCC3)C2=O)cc1 (stereo not given) = 19 µM (inactive)
• COC(=O)C1CCCC2(C1)OCCO2 (stereo not given) = > 100 µM (inactive)
• Cc1ccc(/N=c2/oc3c(ccc4ccccc43)nc2Nc2ccc(C)cc2)cc1 = > 100 µM (inactive)

// switching to the query molecule
INPUT: Name the reported GI50 value associated with the molecule O=[N+]([O-])c1ccc2nc(O)c(/C=C(\O)c3ccccc3)nc2c1
OUTPUT: 16 µM (inactive)

---

test system: LOX IMVI; test: NCI tumour cell line growth inhibition, 48 h
Activity calls are given as the source filed them. Cut-off read from the data, not from the text of the source: active = GI50 up to about 1.1 µM and inactive = higher.
Give one outcome, nothing more. List: 1 (yes) (active), 0 (no) (inactive)

INPUT: Status in this test for COc1ccc(C2C(C(=O)O)=C(CO)Oc3cc4c(cc32)OCO4)cc1 (stereo not given) ?
OUTPUT: 0 (no)

INPUT: Moving on to the next compound: [O-][n+]1nc(N2CCOCC2)nc2ccccc21
OUTPUT: 0 (no)

INPUT: Moving on to the next compound: OCC1OC(c2ccccc2)CC1O (stereo not given)
OUTPUT: 0 (no)

INPUT: Moving on to the next compound: C[n+]1c2ccccc2c(CNC(CCC(N)=O)C(=O)O)c2ccccc21 (stereo not given)
OUTPUT: 0 (no)
